Documented normalized RNA/DNA level with ligand (log10) across a set of variants
B1: library; a variant is named by its letters at N, in order (parent)
chain: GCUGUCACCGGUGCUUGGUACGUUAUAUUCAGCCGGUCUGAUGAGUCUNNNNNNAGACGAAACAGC

variants of: B1; experiment: normalized RNA/DNA level with ligand (relative to sTRSVctl = 100) (log10 (% of sTRSVctl)); HEK293T overexpressing SLC46A1; ligand concentration (+) RNA-Seq: 6 mM; higher = less ribozyme self-cleavage, higher mRNA level; details: with (6R,S)-folinic acid; ligand present: yes
Form rule: numeric answer, no unit written next to it.

Guide cases for normalized RNA/DNA level with ligand (log10), answers given:
GCUGUCACCGGUGCUUGGUACGUUAUAUUCAGCCGGUCUGAUGAGUCUUCUUAGAGACGAAACAGC : 2.02
GCUGUCACCGGUGCUUGGUACGUUAUAUUCAGCCGGUCUGAUGAGUCUAGUACAAGACGAAACAGC : 2
GCUGUCACCGGUGCUUGGUACGUUAUAUUCAGCCGGUCUGAUGAGUCUCGAUCAAGACGAAACAGC : 2.04
GCUGUCACCGGUGCUUGGUACGUUAUAUUCAGCCGGUCUGAUGAGUCUCCAAGCAGACGAAACAGC : 2.06
GCUGUCACCGGUGCUUGGUACGUUAUAUUCAGCCGGUCUGAUGAGUCUCACGUCAGACGAAACAGC : 1.99

Entry GCUGUCACCGGUGCUUGGUACGUUAUAUUCAGCCGGUCUGAUGAGUCUUCCCAUAGACGAAACAGC — recorded normalized RNA/DNA level with ligand (log10) = 2

// sample GCUGUCACCGGUGCUUGGUACGUUAUAUUCAGCCGGUCUGAUGAGUCUACGGACAGACGAAACAGC , its normalized RNA/DNA level with ligand (log10) was 2.01

The variant listed as GCUGUCACCGGUGCUUGGUACGUUAUAUUCAGCCGGUCUGAUGAGUCUCUACGAAGACGAAACAGC shows normalized RNA/DNA level with ligand (log10) equal to 2.05
